Catalogue of TGI readings, one per entry.
System: T-47D breast
EXPERIMENT DESCRIPTION: NCI tumour cell line growth inhibition, 48 h

[
  {
    "COMPOUND": "CCCCCCN(CCCCCC)C(=S)N/N=C(\\C)c1ccccn1",
    "TGI": "1.91 µM"
  },
  {
    "COMPOUND": "O=C(CC(NC(=O)C(F)(F)F)C(=O)O)OCc1ccccc1 (centres undefined)",
    "TGI": "> 100 µM"
  },
  {
    "COMPOUND": "Cc1nnc2n(c1=O)CCCN2C",
    "TGI": "> 100 µM"
  },
  {
    "COMPOUND": "c1ccc(C2=NC3OC2c2ccccc23)cc1 (centres undefined)",
    "TGI": "> 10 µM"
  },
  {
    "COMPOUND": "CN(C)c1ccc(/C=C(\\NC(=O)c2ccccc2)C(=O)NC(CC(=O)O)C(=O)O)cc1 (centres undefined)",
    "TGI": "> 100 µM"
  },
  {
    "COMPOUND": "CC(=O)c1ccc(Oc2c3ccccc3nc3ccccc23)cc1",
    "TGI": "18 µM"
  },
  {
    "COMPOUND": "CN(C)CCn1c(=O)c2ccc(NCCCN(C)CCCNc3ccc4c(=O)n(CCN(C)C)c(=O)n5c6ccc(O)cc6c(=O)c3c45)c3c(=O)c4cc(O)ccc4n(c1=O)c23",
    "TGI": "10.2 µM"
  },
  {
    "COMPOUND": "COc1cc(CNc2nc3cc(N)cc(N)c3nc2-c2ccccc2)cc(OC)c1",
    "TGI": "4.57 µM"
  },
  {
    "COMPOUND": "COc1ccc2c(N)ncc(C#Cc3cc(C(=O)Nc4ccc(CN5CCN(C)CC5)c(C(F)(F)F)c4)cnc3C)c2c1",
    "TGI": "25.4 µM"
  },
  {
    "COMPOUND": "Cc1c(C)n(-c2ccccc2)c2nc(S(C)=O)nc(S(C)=O)c12 (centres undefined)",
    "TGI": "8.62 µM"
  },
  {
    "COMPOUND": "CCn1c2c(c3ccccc3c1=O)C(=O)c1ccccc1-2",
    "TGI": "> 100 µM"
  },
  {
    "COMPOUND": "COc1ccc(OC)c(NCC(=O)n2nc(/C=C\\c3ccc(O)c(OC)c3)cc2/C=C\\c2ccc(O)c(OC)c2)c1",
    "TGI": "14.6 µM"
  },
  {
    "COMPOUND": "O=C(ON=C1c2ccccc2C(Br)C(Br)c2ccccc21)c1ccccc1 (centres undefined)",
    "TGI": "29.3 µM"
  },
  {
    "COMPOUND": "CCCCCCCCCCCCCCCCCCOc1ccccc1CC(=O)NCC[N+]1(C)CCOCC1",
    "TGI": "39.2 µM"
  },
  {
    "COMPOUND": "COCC([C@@H](O)C(O)C(=O)NCC[C@@H](C)c1nc(/C=C/CC2OC3(C[C@H](O)C2C)OC(C(C[C@H](O)C(C)[C@H](O)C(C)/C=C(C)/C(C)=C/C=C/C(C)=C/C#N)OC)[C@@H](OP(=O)(O)O)C3(C)C)co1)N(C)C (some centres undefined)",
    "TGI": "0.00195 µM"
  },
  {
    "COMPOUND": "O=C1NN(C2=NNC3(C(=O)N2)c2ccccc2-c2ccccc23)C(c2ccccc2)=N/C1=C/c1ccc(Cl)cc1",
    "TGI": "149 µg/mL"
  },
  {
    "COMPOUND": "CC1=C(C(=O)Nc2ccccc2)C(c2ccc(N(C)C)cc2)C(C(=O)Nc2ccccc2)=C(C)N1",
    "TGI": "> 93.6 µM"
  },
  {
    "COMPOUND": "Cn1c2ccccc2n2c3ncccc3c(=O)c(C#N)c12",
    "TGI": "> 100 µM"
  },
  {
    "COMPOUND": "CCOC(=O)CSc1nc(N)c2c(-c3ccccc3)c3c(nc2n1)CCCC3",
    "TGI": "> 100 µM"
  }
]

---

Tested on: HT29 colon
EXPERIMENT DESCRIPTION: NCI tumour cell line growth inhibition, 48 h; in the data active = GI50 below about 0.43 µM; inactive = the rest
Classes used: active, inactive

[
  {
    "COMPOUND": "COc1ccc(OC)c(NCC(=O)n2nc(/C=C\\c3ccc(O)c(OC)c3)cc2/C=C\\c2ccc(O)c(OC)c2)c1",
    "CAT": "inactive"
  },
  {
    "COMPOUND": "COc1ccc2c(c1)c(-c1nc(-c3c[nH]c4ncccc34)cs1)cn2CCCN1CCOCC1",
    "CAT": "inactive"
  },
  {
    "COMPOUND": "Cc1ccc2c(-c3ccnc(Nc4ccc5c(c4)OCCO5)n3)c(-c3ccc(C(F)(F)F)cc3)nn2n1",
    "CAT": "inactive"
  },
  {
    "COMPOUND": "Cc1c(C(=N)C(C#N)C#N)c(=N)oc2c1ccc1ccccc12",
    "CAT": "inactive"
  },
  {
    "COMPOUND": "COc1ccc2c(c1)C(=O)c1c-2c(Nc2ccccc2OC)nc2ccccc12",
    "CAT": "inactive"
  },
  {
    "COMPOUND": "Cc1cccc(NC(=O)c2sc3nc4c(cc3c2N)C(=O)CCC4)c1",
    "CAT": "active"
  },
  {
    "COMPOUND": "Cc1ccc(O)cc1Nc1ccnc2ccc(S(C)(=O)=O)cc12",
    "CAT": "inactive"
  },
  {
    "COMPOUND": "Nc1ncnc2c1N=C(c1ccc3c(c1)OCO3)CC(c1ccc(Cl)cc1)N2 (stereo not given)",
    "CAT": "inactive"
  },
  {
    "COMPOUND": "O=C1c2cccc(Oc3ccccc3)c2C(=O)c2cccc(Oc3ccccc3)c21",
    "CAT": "inactive"
  },
  {
    "COMPOUND": "CC(C)(CO)CNC(=O)c1ccc2[nH]c(O)c(N=Nc3ccc(S(N)(=O)=O)cc3)c2c1",
    "CAT": "inactive"
  }
]

---

Tested on: XF 498 CNS
EXPERIMENT DESCRIPTION: NCI tumour cell line growth inhibition, 48 h
Catalogue of TGI readings, one per entry.

[
  {
    "MOLECULE": "CN(C)c1nc(Oc2nc(N(C)C)nc(N(C)C)n2)nc(N(C)C)n1",
    "TGI": "> 100 µM"
  },
  {
    "MOLECULE": "COc1ccc(CNc2cnc3ccc(N)cc3n2)cc1",
    "TGI": "> 100 µM"
  },
  {
    "MOLECULE": "COC(=O)/C=C(/C(=O)OC)C1(C)c2cc(C(=O)OC)c(C(=O)OC)c(N)c2C(=N)N1c1ccccc1 (stereo unspecified)",
    "TGI": "28.4 µM"
  },
  {
    "MOLECULE": "COC(=O)CCC(NC(=S)N/N=C/c1cccs1)C(=O)OC (stereo unspecified)",
    "TGI": "> 100 µM"
  },
  {
    "MOLECULE": "O=[N+]([O-])c1ccccc1C1SCc2nc3ccccc3n21 (stereo unspecified)",
    "TGI": "> 100 µM"
  },
  {
    "MOLECULE": "O=c1cc(O)cc2n1CCC2",
    "TGI": "> 100 µM"
  },
  {
    "MOLECULE": "O=C(NC12CC3CCC1CC(C3)C2)[C@@H]1CCCN1C(=O)OCc1ccccc1 (stereo partly specified)",
    "TGI": "> 100 µM"
  },
  {
    "MOLECULE": "C[C@]12Cc3cn[nH]c3C(=O)C1CC[C@@H]1C2CC[C@@]2(C)C1CC[C@@H]2O (stereo partly specified)",
    "TGI": "> 100 µM"
  },
  {
    "MOLECULE": "COC1N(C2CC(O)C(CO)O2)C(=O)NC(=O)C1(F)Br (stereo unspecified)",
    "TGI": "50 µM"
  },
  {
    "MOLECULE": "CC1=NN(C(=O)Cc2ccccc2)C(=O)/C1=C\\c1ccc(O)cc1",
    "TGI": "> 100 µM"
  },
  {
    "MOLECULE": "O=[N+]([O-])c1cccc(C2=NN(c3ccccc3)C3c4cc(Br)ccc4OCC23)c1 (stereo unspecified)",
    "TGI": "> 100 µM"
  }
]

---

System: MCF7 breast
EXPERIMENT DESCRIPTION: NCI tumour cell line growth inhibition, 48 h
Catalogue of TGI readings, one per entry.

[
  {
    "COMPOUND": "O=C1C=C[C@H](O)[C@@]2(CO)O[C@@H]12",
    "TGI": "23.8 µM"
  },
  {
    "COMPOUND": "OCc1ccc2c(c1)CC1(C2)Cc2cc3c(cc2C1O)CCC3 (stereo unspecified)",
    "TGI": "17.6 µM"
  },
  {
    "COMPOUND": "Cc1ccccc1-c1nc2c(N)nc(N)nc2nc1N",
    "TGI": "> 100 µM"
  },
  {
    "COMPOUND": "c1ccc(C2=NC3OC2c2ccccc23)cc1 (stereo unspecified)",
    "TGI": "> 10 µM"
  },
  {
    "COMPOUND": "COc1ccc2c(c1)C(=O)c1c-2c(Nc2ccccc2OC)nc2ccccc12",
    "TGI": "> 100 µM"
  },
  {
    "COMPOUND": "N#CC1c2ccccc2C=CN1C(=O)CCCl (stereo unspecified)",
    "TGI": "12.5 µM"
  },
  {
    "COMPOUND": "O=C1CC(c2ccccc2)Oc2ccccc21 (stereo unspecified)",
    "TGI": "> 100 µM"
  },
  {
    "COMPOUND": "CN1CSC(=S)N(c2cccc(C(F)(F)F)c2)C1",
    "TGI": "33.3 µM"
  },
  {
    "COMPOUND": "Cc1ccc(-c2cc(-c3ccco3)c(C#N)c(=S)[nH]2)cc1",
    "TGI": "> 100 µM"
  },
  {
    "COMPOUND": "Cn1nccc1Nc1nccc(-c2ccn([C@H](CO)c3ccc(Cl)c(F)c3)c(=O)c2)n1",
    "TGI": "> 100 µM"
  },
  {
    "COMPOUND": "CCN=c1sc2c(n1NC(=O)c1cc3ccc1CCc1ccc(cc1)CC3)C(=O)c1ccccc1C2=O",
    "TGI": "1.3 µM"
  }
]
